Every entry's value here was drawn from PubChem BioAssay (NCI).

# Test system: 786-0 renal
# experimental protocol: NCI tumour cell line growth inhibition, 48 h
Collected TGI values appear next to each entry.

Solved cases below.
[
  {
    "molecule": "O=C1CSC(c2ccccc2O)N1c1ccc(-n2c(-c3ccccc3)nc3ccccc3c2=O)cc1 (stereo unspecified)",
    "TGI": "> 100 µM"
  },
  {
    "molecule": "O=C1NCN(c2ccccc2)C12CCN(CC1COc3ccccc3O1)CC2 (stereo unspecified)",
    "TGI": "> 100 µM"
  },
  {
    "molecule": "COc1ccc(-c2csc(Nc3cccc(-c4csc(C)n4)c3)n2)cc1",
    "TGI": "> 34.8 µM"
  },
  {
    "molecule": "COc1ccc(-c2nc(Nc3ccccc3)sc2Cc2sc(Nc3ccccc3)nc2-c2ccc(OC)cc2)cc1",
    "TGI": "> 100 µM"
  },
  {
    "molecule": "C=C1C2=C(CCCC2)C(=O)OC12CCCCC2",
    "TGI": "> 100 µM"
  }
]

Alright, here's another molecule for you.
Entry under review: Cc1nc2ccccc2c(=O)n1/N=C(\N=Nc1cc(Cl)ccc1Cl)c1ccccc1 . Reported TGI?
> 100 µM

* * *

# Test system: OVCAR-5 ovarian
# experimental protocol: NCI tumour cell line growth inhibition, 48 h
parameter: TGI

Solved cases below.
[
  {
    "cpd smiles": "COc1cc(-c2nn(-c3cccc(NC(=O)CCN4CCN(c5ccccc5)CC4)c3)cc2-c2ccncc2)ccc1Cl",
    "TGI": "> 100 µM"
  },
  {
    "cpd smiles": "Cc1ccc(-c2cn3c(nc4ccccc43)c(/C=C/c3ccco3)n2)cc1",
    "TGI": "> 100 µM"
  },
  {
    "cpd smiles": "COc1ccc2nc3ccc(OC)cc3c(SCCCl)c2c1",
    "TGI": "> 40.8 µM"
  },
  {
    "cpd smiles": "C=C1CC[C@H]2C(C)=CC[C@H]3C(=C)C(=O)O[C@@H]3[C@@H]12",
    "TGI": "> 100 µM"
  },
  {
    "cpd smiles": "COc1ccccc1-c1c(C#N)c(N)[nH]c(=S)c1C#N",
    "TGI": "> 100 µM"
  }
]

Entry under review: O=[N+]([O-])c1ccc(-c2nn3c(C45CC6CC(CC(C6)C4)C5)nnc3s2)c(Cl)c1 . Reported TGI?
> 100 µM

* * *

# Test system: SF-539 CNS
# experimental protocol: NCI tumour cell line growth inhibition, 48 h
parameter: TGI

[
  {
    "compound": "COc1ccc(COCC[C@H](C)OC2OC(CO)C(O)C(O)C2O)cc1 (stereo not given in full)",
    "target or system": "SF-539 CNS",
    "parameter": "TGI",
    "experimental value": "> 100 µM"
  }
]

Entry under review: COc1cccc(C23CCN(C)C(CC(O)C2)C3)c1OC (stereo not given) . Reported TGI?
> 100 µM

Entry under review: COc1cc(N(C)C)c(OC)cc1C=C1C=CC=C1 . Reported TGI?
> 100 µM

Entry under review: COC(=O)c1c(O)ccc2c1c1cc3ccccc3c(O)c1n2CCc1ccc(OC)c(OC)c1 . Reported TGI?
> 100 µM

Entry under review: Cc1cc(NS(=O)(=O)c2ccc(N=[N+]([O-])c3ccc(S(=O)(=O)Nc4cc(C)on4)cc3)cc2)no1 . Reported TGI?
> 100 µM

Entry under review: O=c1cccc(Cl)[nH]1 . Reported TGI?
> 100 µM

Entry under review: CC(Oc1ccccc1Cl)C(=O)NN1C(=O)CC(=O)N(c2ccc(Cl)cc2)C1=S (stereo not given) . Reported TGI?
> 100 µM

Entry under review: COc1ccc(-c2nc(Nc3ccccc3)sc2Cc2sc(Nc3ccccc3)nc2-c2ccc(OC)cc2)cc1 . Reported TGI?
> 100 µM

Entry under review: O=C1Cc2cn[nH]c2-c2ccccc2N1 . Reported TGI?
> 100 µM

Entry under review: CC(=O)[C@H]1[C@H](O)C[C@@]2(C)[C@@H]3CCc4cc(O)c(OC5OC(CO)C(O)C(O)C5O)cc4C3(C)C(=O)C[C@]12C (stereo not given in full) . Reported TGI?
> 100 µM

Entry under review: CCCCCCCCCCCCCCCc1nc(=S)[nH][nH]1 . Reported TGI?
> 100 µM

Entry under review: C=C1C2=C(CCCC2)C(=O)OC12CCCCC2 . Reported TGI?
> 100 µM

Entry under review: CS(=O)(=O)Nc1cc(-c2ccc3ncnc(Nc4cccc(Cl)c4)c3c2)cnc1Cl . Reported TGI?
3.73 µM

Entry under review: CCOC(=O)C1=C(OC(OCC)C(CC)[Se]c2ccccc2)CCC1 (stereo not given) . Reported TGI?
37.4 µM

Entry under review: COC(=O)C(=O)Nc1cc2c3c(c1)Oc1cccc4c1C3(C)c1c(cccc1O2)O4 . Reported TGI?
> 76.6 µM

Entry under review: O=C(NCCNCCNC(=O)c1cc(-c2ccccc2)nc2ccccc12)c1cc(-c2ccccc2)nc2ccccc12 . Reported TGI?
3.99 µM

Entry under review: O=C(Nc1ccccc1)OCCN=C1c2ccccc2CCc2ccccc21 . Reported TGI?
34.8 µM

Entry under review: COc1cc2cc(C(=O)N3CC(CCl)c4ccc([N+](C)(C)Cc5ccccc5[N+](=O)[O-])cc43)[nH]c2c(OC)c1OC (stereo not given) . Reported TGI?
5.38 µM

Entry under review: Cn1c(=O)c2c(nc(N/N=C/c3ccccc3C(=O)O)n2C)n(C)c1=O . Reported TGI?
> 100 µM

Entry under review: O=C(/C=C/c1ccccc1O)c1ccccc1Cl . Reported TGI?
> 100 µM

Entry under review: CC1(C)OC(=O)C(=C2CCC(C(=O)Nc3cccc(C(F)(F)F)c3)N2)C(=O)O1 (stereo not given) . Reported TGI?
> 100 µM

Entry under review: Nc1ccccc1C(=O)N=Nc1c(O)[nH]c2ccccc12 . Reported TGI?
> 100 µM

Entry under review: COC(=O)c1c(O)ccc2c1c1c(n2Cc2cc(OC)cc(OC)c2)C(=O)c2ccccc2C1=O . Reported TGI?
25.9 µM
